Source listed as the supplement of paper PMC6555819.

Test system: PPARg:RXRa IVT, anti-PPARg (NR concentration 270 nM, RXRa partner concentration 90 nM)
Test: PBM binding z-score (relative to random genomic background probes); higher = stronger binding; sequences stand for … in GC…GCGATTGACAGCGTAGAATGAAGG
Threshold rule: PBM binding z-score greater than or equal to 0.4 is satisfied; below that, not satisfied.

1. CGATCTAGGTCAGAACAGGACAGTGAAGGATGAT :: satisfied
2. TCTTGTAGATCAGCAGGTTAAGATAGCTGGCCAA :: satisfied
3. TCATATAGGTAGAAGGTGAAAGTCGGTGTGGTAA :: satisfied
4. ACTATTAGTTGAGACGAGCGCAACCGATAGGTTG :: not satisfied
5. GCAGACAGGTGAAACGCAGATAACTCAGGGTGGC :: not satisfied
6. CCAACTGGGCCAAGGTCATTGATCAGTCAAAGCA :: satisfied
